This collection of values is drawn from patent US20260258115A1.

ASSAYED_SYSTEM: RSV F on RSV-A2 virus (Respiratory syncytial virus (RSV-A2))
EXPERIMENTAL_PROTOCOL: cell-based or functional assay
ASSAY_ENDPOINT: Neutralization IC50 (RSV subtype A) (µg/mL)

ADI-41237 (antibody, V domains shown) VH: EVQLVESGGGLVKPGGSLRLSCAASGFTFSDYYMNWIRQAPGKGLEWVSDISPSSSYTNYADSVKGRFTISRDNAKNSLYLQMNSLRAEDTAMYYCARRGSCTGGVCSFDYWGQGTLVTVSS VL: QPGLTQPPSVSGAPGQRVTISCTGSSSNIGAGYDVNWYQQLPGTAPKLLIYDNSNRPSGVPDRFSGSKSGTSASLAITGLQAEDEADFYCQSYDSSLSGFVFGTGTKVTVL: 0.04
